Assay text: Liver microsomes stability, human
Measurement parameters: human
Reported endpoint: Predicted hepatic CL (mL/min/kg)
One number for each entry, in mL/min/kg.

| Molecule | U | Predicted hepatic CL |
| --- | --- | --- |
| COc1ccc2c(c1)C(C[C@H]1CCCN1)CN2 (stereo partly drawn) [(R)-I-165] | mL/min/kg | 0.00 |
| CN1CCC[C@@H]1C[C@H]1CNc2ccc(F)cc21 [(R),(R)-I-47] | mL/min/kg | 2.74 |
| COc1ccc2c(c1)C(C[C@H]1CCCN1C)CN2 (stereo partly drawn) [(R)-I-54] | mL/min/kg | 13.52 |

Value of Predicted hepatic CL reported for the molecule COc1cccc2c1C(C[C@H]1CCCN1C)CN2 (stereo partly drawn) [(R)-I-94] is 5.63

* * *

Assay text: Liver microsomes stability, mouse
Measurement parameters: male, microsomes
For each record, write down the corresponding microsomal CLint at 2 μM.

Illustrative cases are given below, each with its answer.
| Molecule | Reported endpoint | Val |
| --- | --- | --- |
| CN1CCC[C@@H]1C[C@H]1CNc2ccc(F)cc21 [(R),(R)-I-47] | microsomal CLint at 2 μM | 3.55 µL/min/mg |
| COc1ccc2c(c1)C(C[C@H]1CCCN1)CN2 (stereo partly drawn) [(R)-I-165] | microsomal CLint at 2 μM | 14.9 µL/min/mg |
| COc1cccc2c1C(C[C@H]1CCCN1C)CN2 (stereo partly drawn) [(R)-I-94] | microsomal CLint at 2 μM | > 307 µL/min/mg |

Continue with the molecule presented below.
molecule COc1ccc2c(c1)C(C[C@H]1CCCN1C)CN2 (stereo partly drawn) [(R)-I-54] , microsomal CLint at 2 μM observed: 73.8 µL/min/mg

* * *

Could you please report measured Remaining Percentage for the items listed next?
Assay text: Liver microsomes stability, human
Measurement parameters: human, Without NADPH, 30 min
Give bare numbers, in %.

Some entries whose results are on file:
| Compound | Remaining Percentage (%) |
| --- | --- |
| COc1cccc2c1C(C[C@H]1CCCN1C)CN2 (stereo partly drawn) [(R)-I-94] | 108.38 |
| COc1ccc2c(c1)C(C[C@H]1CCCN1C)CN2 (stereo partly drawn) [(R)-I-54] | 116.22 |
| COc1ccc2c(c1)C(C[C@H]1CCCN1)CN2 (stereo partly drawn) [(R)-I-165] | 99.07 |

Sample CN1CCC[C@@H]1C[C@H]1CNc2ccc(F)cc21 [(R),(R)-I-47] ; Remaining Percentage observed: 102.35

* * *

Assay text: Liver microsomes stability, human
Measurement parameters: human, pooled human liver microsomes
Reported endpoint: half-life at 2 μM (h)
One number for each entry, in h.

Some solved cases for reference:
| Compound | Val |
| --- | --- |
| COc1ccc2c(c1)C(C[C@H]1CCCN1C)CN2 (stereo partly drawn) [(R)-I-54] | 0.743 |
| CN1CCC[C@@H]1C[C@H]1CNc2ccc(F)cc21 [(R),(R)-I-47] | 9.19 |

The measured half-life at 2 μM associated with COc1cccc2c1C(C[C@H]1CCCN1C)CN2 (stereo partly drawn) [(R)-I-94] reads 3.74

* * *

Experimental system: human 5-HT2A (h5-HT2A) receptor (Homo sapiens, UniProt P28223)
Construct: expressed in transfected cells; grown under G418 and hygromycin B selection
Sequence (P28223 whole entry): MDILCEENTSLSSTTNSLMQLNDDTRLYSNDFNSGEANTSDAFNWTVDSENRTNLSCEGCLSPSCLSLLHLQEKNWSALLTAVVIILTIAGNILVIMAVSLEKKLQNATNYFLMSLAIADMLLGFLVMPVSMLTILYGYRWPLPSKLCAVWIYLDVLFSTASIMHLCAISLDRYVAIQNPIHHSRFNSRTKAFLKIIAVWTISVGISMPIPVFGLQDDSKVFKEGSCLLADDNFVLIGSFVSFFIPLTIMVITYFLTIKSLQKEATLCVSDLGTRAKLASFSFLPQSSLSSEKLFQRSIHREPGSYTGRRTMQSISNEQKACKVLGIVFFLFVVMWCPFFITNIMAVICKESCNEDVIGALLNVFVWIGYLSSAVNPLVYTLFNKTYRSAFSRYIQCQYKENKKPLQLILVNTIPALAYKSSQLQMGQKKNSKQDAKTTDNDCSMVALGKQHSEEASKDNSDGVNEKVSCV
Assay text: FLIPR assay, human 5-HT2A, agonist mode
Format: cell-based
Measurement parameters: 10 μM
Binary label based on 5-HT2A (FLIPR) RFU@10 μM with cut-off 400 RFU: below gives criterion met, not below gives criterion not met.

Field: example entries. Status: answers known.
| Compound | Assigned label |
| --- | --- |
| CN1CCC[C@@H]1C[C@@H]1CNc2ccc(F)cc21 [(S),(R)-I-47] | criterion not met |
| CN(C)CCc1c[nH]c2ccccc12 [DMT, N,N-dimethyltryptamine, reference compound] | criterion met |
| CN1CCC[C@@H]1C[C@H]1CNc2ccc(F)cc21 [(R),(R)-I-47] | criterion not met |
| COc1cccc2c1C(C[C@H]1CCCN1C)CN2 (stereo partly drawn) [(R)-I-94] | criterion not met |
| COc1ccc2c(c1)C(C[C@@H]1CCCN1C)CN2 (stereo partly drawn) [(S)-I-54] | criterion not met |
| COc1cc2c(cc1OC)C(C[C@H]1CCCN1C)CN2 (stereo partly drawn) [(R) I-81] | criterion met |
| COc1cccc2c1NCC2C[C@H]1CCCN1C (stereo partly drawn) [(R)-I-95] | criterion met |

Let us examine a further case.
Given [2H]C([2H])([2H])N1CCC[C@@H]1CC1CNc2cc(OC)c(OC)cc21 (stereo partly drawn) [(R)-I-82] , is recorded 5-HT2A (FLIPR) RFU@10 μM strictly lower than 400 RFU? criterion not met

* * *

Kindly state CLint scaled at 2 μM for each of the entries shown.
Assay text: Liver microsomes stability, human
Measurement parameters: human, pooled human liver microsomes
Numbers only, in mL/min/kg.

Solved entries (count: 2):
| Compound | CLint scaled at 2 μM, mL/min/kg |
| --- | --- |
| COc1ccc2c(c1)C(C[C@H]1CCCN1C)CN2 (stereo partly drawn) [(R)-I-54] | 39 |
| CN1CCC[C@@H]1C[C@H]1CNc2ccc(F)cc21 [(R),(R)-I-47] | 3.15 |

// field: CLint scaled at 2 μM; key: COc1cccc2c1C(C[C@H]1CCCN1C)CN2 (stereo partly drawn) [(R)-I-94] ; value = 7.74
